Assay: pH and particle size of crude cinacalcet emulsions with different oils and phospholipids
Format: physicochemical
Conditions: crude emulsion; STG 10%; 1% Purified Egg Lecithin

- Compound Structure: "C[C@@H](NCCCc1cccc(C(F)(F)F)c1)c1cccc2ccccc12"
  D(4, 3) [µm]: 1.23

* * *

Experiment: Short-term storage stability of emulsions (drug conc., pH, particle size)
Assay type: physicochemical
Settings: emulsion; DEA 0.05%; 40° C.; 0 weeks
Readout: D(4, 3) (µm)

- Molecule: "C[C@@H](NCCCc1cccc(C(F)(F)F)c1)c1cccc2ccccc12 [Cinacalcet]"
  Value Units: "µm"
  Result: 0.39

* * *

Assay: Short-term storage stability of emulsions (drug conc., pH, particle size)
Format: physicochemical
Conditions: emulsion; DEA 0.30%; 5° C.; 12 weeks

- Molecule: "C[C@@H](NCCCc1cccc(C(F)(F)F)c1)c1cccc2ccccc12 [Cinacalcet]"
  D(4, 3): "0.36 µm"

* * *

Assay: Solubility of calcimimetics in oil phases (RP-HPLC)
Type: physicochemical
Conditions: Medium Chain Triglycerides (oil phase) with egg lecithin, oil or lipid, thermodynamic from solid; Medium Chain Triglycerides; Egg lecithin
Experimental: The solubility measurements of the compounds were prepared by the addition of 1 g of drug substance to two milliliters of oil into a Wheaton 5 mL vial. The headspace was sparged with nitrogen, and enclosed with a West 4405/50 gray Teflon coated stopper and manually sealed by an aluminum overseal. The preparations were repeated again with the oils containing either purified egg or soy lecithin. […] After eighteen hours, the samples were diluted in mobile phase, and analyzed by the RP-HPLC method. […]
Readout: solubility at 18 h

- Compound Structure: "C[C@@H](NCCCc1cccc(C(F)(F)F)c1)c1cccc2ccccc12"
  Result: "> 349 mg/mL"

* * *

Test: Short-term storage stability of emulsions (drug conc., pH, particle size)
Type: physicochemical
Settings: emulsion; DEA 0.30%; 40° C.; 12 weeks
Description: This Example illustrates the effect of the storage temperature on short-term stability of the formulations of the invention as measured by pH and the size of the droplets. The results of short term stability of cinacalcet at different temperatures and varying TRIS buffer concentrations are presented in Table 8. Cinacalcet was stable in the emulsion formulation over 12 weeks. The pH of the emulsion is lower over time for both placebo and cinacalcet emulsions. […]
Readout: D(4, 3)

- Molecule: "C[C@@H](NCCCc1cccc(C(F)(F)F)c1)c1cccc2ccccc12 [Cinacalcet]"
  Result: "0.38 µm"

* * *

Assay: Short-term storage stability of emulsions (drug conc., pH, particle size)
Type: physicochemical
Conditions: emulsion; DEA 0.05%; 40° C.; 2 weeks
Readout: D(4, 3) (µm)

- Compound Structure: "C[C@@H](NCCCc1cccc(C(F)(F)F)c1)c1cccc2ccccc12"
  Readout: "D(4, 3)"
  Value Units: "µm"
  Result: 0.39

* * *

Experiment: pH and particle size of crude cinacalcet emulsions with different oils and phospholipids
Type: physicochemical
Conditions: crude emulsion; SBO 5%; % Purified Soy Lecithin

- Compound: "C[C@@H](NCCCc1cccc(C(F)(F)F)c1)c1cccc2ccccc12 [Cinacalcet]"
  Value Units: "µm"
  D(4, 3): 0.81

* * *

Assay: Short-term storage stability of emulsions (drug conc., pH, particle size)
Assay type: physicochemical
Details: emulsion; DEA 0.30%; 5° C.; 8 weeks

- Compound Structure: "C[C@@H](NCCCc1cccc(C(F)(F)F)c1)c1cccc2ccccc12"
  D(4, 3), µm: 0.37
